Field: Dmax. Provide a value for each of the compounds that follow.
Target: L858R/T790M/C797S EGFR (Homo sapiens, UniProt P00533, C797S/L858R/T790M)
Construct: expressed in transfected cells; host or cells: H1975 clone #25 (lentiviral over-expression, endogenous EGFR knocked out by sgRNA)
Sequence (P00533 25-1210 T790M/C797S/L858R): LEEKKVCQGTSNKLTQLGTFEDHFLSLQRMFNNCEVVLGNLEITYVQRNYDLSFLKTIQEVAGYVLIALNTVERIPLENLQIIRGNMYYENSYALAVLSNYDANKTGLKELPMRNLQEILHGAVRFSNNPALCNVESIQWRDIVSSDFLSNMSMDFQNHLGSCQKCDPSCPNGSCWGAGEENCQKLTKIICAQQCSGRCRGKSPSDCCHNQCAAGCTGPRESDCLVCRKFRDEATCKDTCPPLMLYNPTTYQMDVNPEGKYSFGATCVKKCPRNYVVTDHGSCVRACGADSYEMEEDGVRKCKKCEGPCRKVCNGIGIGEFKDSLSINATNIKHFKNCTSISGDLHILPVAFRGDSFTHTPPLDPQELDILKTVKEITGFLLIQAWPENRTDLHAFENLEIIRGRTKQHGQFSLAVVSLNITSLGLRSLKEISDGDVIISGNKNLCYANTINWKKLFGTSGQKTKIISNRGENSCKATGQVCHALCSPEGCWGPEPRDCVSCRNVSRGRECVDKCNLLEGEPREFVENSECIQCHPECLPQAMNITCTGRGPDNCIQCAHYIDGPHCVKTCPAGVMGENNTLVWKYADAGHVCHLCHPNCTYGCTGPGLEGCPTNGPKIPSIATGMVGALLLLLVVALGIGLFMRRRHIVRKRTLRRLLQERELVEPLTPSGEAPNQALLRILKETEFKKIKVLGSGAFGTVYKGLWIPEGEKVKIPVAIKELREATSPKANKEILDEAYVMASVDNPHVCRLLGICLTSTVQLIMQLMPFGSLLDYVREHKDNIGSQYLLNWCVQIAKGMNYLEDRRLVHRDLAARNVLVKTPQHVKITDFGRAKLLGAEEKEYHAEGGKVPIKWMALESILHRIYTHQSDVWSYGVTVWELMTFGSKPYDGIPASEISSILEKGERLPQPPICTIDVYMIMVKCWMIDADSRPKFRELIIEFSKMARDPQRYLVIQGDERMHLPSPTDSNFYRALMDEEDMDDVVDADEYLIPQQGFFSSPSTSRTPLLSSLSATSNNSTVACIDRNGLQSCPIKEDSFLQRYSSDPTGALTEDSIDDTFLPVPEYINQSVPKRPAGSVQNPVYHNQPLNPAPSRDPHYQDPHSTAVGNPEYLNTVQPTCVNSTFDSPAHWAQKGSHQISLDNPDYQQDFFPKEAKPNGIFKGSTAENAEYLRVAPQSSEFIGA
Assay: EGFR degradation HTRF assay in H1975-clone #25 (LTC) cells
Type: cell-based
Conditions: NCI-H1975, H1975 # 25-LTC (L858R/T790M/C797S), 16h treatment, maximum percentage of degradation
Source text: H1975-clone #28(Del19/T790M/C797S, or abbr: DTC), H1975-clone #23(Del19/C797S, or abbr: DC), H1975-clone #25(L858R/T790M/C797S, or abbr: LTC) and H1975-clone #8 (L858R/C797S, or abbr: LC). EGFR-Del19:T790M/C797S, EGFR-Del19/C797S, EGFR-L858R/T790M/C797S and EGFR-L858R/C797S were stably expressed in H1975 cell lines by lentivirus-mediated over-expression, respectively. […]
Numbers only, in %.

Solved cases below.
Cc1cc2cc(n1)-c1cnn(C)c1OCCC[C@@H](C)CN1/C(=N/C2=O)Nc2ccc(CN3CCC4(CC3)CN(C(=O)[C@@H]3CCN(c5cc(F)c([C@H]6CCC(=O)NC6=O)c(F)c5)C3)C4)cc21 = 89
Cc1cc2cc(n1)-c1cnn(C)c1OCCC[C@@H](C)CN1/C(=N/C2=O)Nc2ccc(CN3CC4(C3)CN(C(=O)[C@H]3CN(c5cc(F)c([C@H]6CCC(=O)NC6=O)c(F)c5)CC3(C)C)C4)cc21 = 87.5

Answer for every listed entry: what is its Dmax? The entries follow.
1. Cc1cc2cc(n1)-c1cnn(C)c1OCCC[C@@H](C)CN1/C(=N/C2=O)Nc2ccc(N(C)C(=O)C3CCN(CCc4cc(F)c([C@H]5CCC(=O)NC5=O)c(F)c4)CC3)cc21
2. COC[C@H]1CN(C(=O)C2CCN(c3ccc4c(c3)N3C[C@H](C)CCCOc5c(cnn5C)-c5cc(cc(C)n5)C(=O)/N=C/3N4)CC2)CCN1c1cc(F)c([C@H]2CCC(=O)NC2=O)c(F)c1

[91.1, 87.5]

----------
target: L858R/T790M/C797S EGFR (Homo sapiens, UniProt P00533, C797S/L858R/T790M); construct: expressed in transfected cells; host or cells: H1975 clone #25 (lentiviral over-expression, endogenous EGFR knocked out by sgRNA); assay: EGFR degradation HTRF assay in H1975-clone #25 (LTC) cells; assay type: cell-based; conditions: H1975 # 25-LTC (L858R/T790M/C797S), 16h treatment, HTRF
I'd appreciate it if you could supply DC50 values for the items below.
Numbers only, in nM.

Reference set, count: 3
Cc1cc2cc(n1)-c1cnn(C)c1OCCC[C@@H](C)CN1/C(=N/C2=O)Nc2ccc(N3CCC(C(=O)N4CC(Oc5cc(F)c([C@H]6CCC(=O)NC6=O)c(F)c5)C4)CC3)cc21 [Example 403] = 1.07
Cc1cc2cc(n1)-c1cnn(C)c1OCCC1CC1CN1/C(=N/C2=O)Nc2ccc(C(=O)N(C)C3CCN(CCc4cc(F)c([C@H]5CCC(=O)NC5=O)c(F)c4)CC3)cc21 (stereo partly shown) [Example 234] = 1.09
COCc1cc2c(cc1N1CCN(C3CCN(c4cc(F)c([C@H]5CCC(=O)NC5=O)c(F)c4)CC3)CC1)N1C[C@H](C)CCCOc3c(cnn3C)-c3cc(cc(C)n3)C(=O)/N=C/1N2 [Example 390] = 2.49

Then there is this molecule:
In one line, give reported DC50 of the entry Cc1cc2cc(n1)-c1cnn(C)c1OCCC[C@@H](C)CN1/C(=N/C2=O)Nc2ccc(C(=O)N(C)[C@H]3CCN(CCc4cc(F)c([C@H]5CCC(=O)NC5=O)c(F)c4)[C@@H](C)C3)cc21 [Example 267] .
0.602
